These entries and their values trace back to the supplement of paper PMC10307832.

Would you mind telling me the reported relative viability of each entry?
test system: COR-L 105; test: relative viability (nuclei count vs DMSO), 5 days (fraction); higher = more cells survive; settings: first compound 0.4 µM
Output spec: single numeric token, no unit.

Enquiry: Name the recorded relative viability for O=C(O)c1ccc(-c2c[nH]c3ncc(-c4ccccc4)cc23)cc1C1CCCC1 + CS(=O)(=O)CCNCc1ccc(-c2ccc3ncnc(Nc4ccc(OCc5cccc(F)c5)c(Cl)c4)c3c2)o1 [Lapatinib] (partner 2 µM) .
Return: 0.347

Enquiry: Do the same for O=C(O)c1ccc(-c2c[nH]c3ncc(-c4ccccc4)cc23)cc1C1CCCC1 + Nc1ncn([C@H]2C[C@H](O)[C@@H](CO)O2)c(=O)n1 [Decitabine] (partner 2 µM) please
Return: 0.703

Enquiry: Do the same for O=C(O)c1ccc(-c2c[nH]c3ncc(-c4ccccc4)cc23)cc1C1CCCC1 + O=C(c1cc(Cc2n[nH]c(=O)c3ccccc23)ccc1F)N1CCN(C(=O)C2CC2)CC1 [Olaparib] (partner 8 µM) please
Return: 0.75

Enquiry: Do the same for O=C(O)c1ccc(-c2c[nH]c3ncc(-c4ccccc4)cc23)cc1C1CCCC1 + COc1cc2c(Oc3ccc(NC(=O)C4(C(=O)Nc5ccc(F)cc5)CC4)cc3F)ccnc2cc1OCCCN1CCOCC1 [Foretinib] (partner 0.25 µM) please
Return: 0.886

Enquiry: Do the same for O=C(O)c1ccc(-c2c[nH]c3ncc(-c4ccccc4)cc23)cc1C1CCCC1 + Cc1nc(Nc2ncc(C(=O)Nc3c(C)cccc3Cl)s2)cc(N2CCN(CCO)CC2)n1 [Dasatinib] (partner 0.075 µM) please
Return: 0.383
